# assay.system: T1, cynomolgus soluble urokinase plasminogen activator receptor (suPAR) (cynomolgus, UniProt Q9GK78 23-303, limits assumed)
# T1 construct: Target antigen of the off-rate screen; also called cynomolgus uPAR; cynomolgus suPAR
# T1 sequence (Q9GK78 23-303 limits assumed): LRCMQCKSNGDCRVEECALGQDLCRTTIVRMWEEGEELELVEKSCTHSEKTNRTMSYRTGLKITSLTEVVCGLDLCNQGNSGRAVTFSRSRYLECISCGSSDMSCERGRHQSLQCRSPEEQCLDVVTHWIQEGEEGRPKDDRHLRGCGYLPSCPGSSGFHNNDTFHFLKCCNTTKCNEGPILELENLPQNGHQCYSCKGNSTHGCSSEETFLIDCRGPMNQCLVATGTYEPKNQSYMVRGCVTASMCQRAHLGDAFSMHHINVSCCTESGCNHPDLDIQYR
# assay: off-rate (kdis) screen of scFv clones, biosensor (Octet)
measured.metric: koff (s⁻¹)
Answer with a number only, understood to be in s⁻¹.

Worked cases, answers included:
suPAR_DB01_B04 (scFv, V domains shown, screened as scFv) VH: QVQLVQSGAEVKKPGASVKVSCKASGYTFTSYYMHWVRQAPGQGLEWMGWIDHENGNTIYDQKFQGRVTMTRDTSTSTVYMELSSLRSEDTAVYYCARGYDVDWFVYWGQGTLVTVSS VL: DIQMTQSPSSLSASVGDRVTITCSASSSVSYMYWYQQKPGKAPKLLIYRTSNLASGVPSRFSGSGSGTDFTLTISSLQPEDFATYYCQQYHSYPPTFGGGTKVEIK = 8.48e-05
suPAR_DB01_E06 (scFv, V domains shown, screened as scFv) VH: QVQLVQSGAEVKKPGASVKVSCKASGYTFINYYMHWVRQAPGQGLEWMGWIDPENGNTIYDQKFQGRVTMTRDTSTSTVYMELSSLRSEDTAVYYCARGYDVDWFVYWGQGTLVTVSS VL: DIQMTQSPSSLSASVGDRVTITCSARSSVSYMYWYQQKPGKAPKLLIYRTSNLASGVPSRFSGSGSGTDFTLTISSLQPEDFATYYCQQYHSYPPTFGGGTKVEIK = 0.000218

In: Quick check: koff of suPAR_DB01_C02 (scFv, V domains shown, screened as scFv) VH: QVQLVQSGAEVKKPGASVKVSCKASGYTFNTYYMHWVRQAPGQGLEWMGWIDPENGNTIYDQKFQGRVTMTRDTSTSTVYMELSSLRSEDTAVYYCARGYDVDWFVYWGQGTLVTVSS VL: DIQMTQSPSSLSASVGDRVTITCSASSSVSYMYWYQQKPGKAPKLLIYRTSSLQSGVPSRFSGSGSGTDFTLTISSLQPEDFATYYCQQYHSYPPTFGGGTKVEIK ?
Out: 0.000234

The values you see were collected from patent US20250215104A1.
